Target: human CD33 T284A (human, UniProt P20138 18-364)
Sequence (P20138 18-364 T284A limits assumed): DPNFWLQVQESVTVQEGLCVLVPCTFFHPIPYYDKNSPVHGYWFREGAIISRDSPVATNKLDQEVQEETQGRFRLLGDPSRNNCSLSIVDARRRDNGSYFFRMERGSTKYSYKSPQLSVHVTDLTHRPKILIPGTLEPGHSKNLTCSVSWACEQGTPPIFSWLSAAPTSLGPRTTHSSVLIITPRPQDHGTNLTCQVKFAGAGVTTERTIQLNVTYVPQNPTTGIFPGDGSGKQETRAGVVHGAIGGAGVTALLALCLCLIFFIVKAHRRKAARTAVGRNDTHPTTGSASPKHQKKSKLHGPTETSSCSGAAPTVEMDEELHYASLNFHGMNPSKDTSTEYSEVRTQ
Test: alanine scan, flow cytometry, HEK293-T;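 also: antibody binding to each alanine-substituted CD33 mutant expressed transiently in HEK293-T, read as fluorescence minus background, mean of duplicates, relative to wild-type CD33 set as 100%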
Value type: Mean % WT Binding (% WT binding)
// units = % WT binding; emit number, no label

// solved cases for Mean % WT Binding follow
The reported Mean % WT Binding of the binder Refmab #4 (antibody, V domains shown, The alanine scan used IgG or Fab) VH: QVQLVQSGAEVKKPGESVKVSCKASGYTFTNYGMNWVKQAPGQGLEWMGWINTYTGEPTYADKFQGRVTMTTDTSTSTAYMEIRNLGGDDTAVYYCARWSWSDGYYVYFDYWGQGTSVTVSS VL: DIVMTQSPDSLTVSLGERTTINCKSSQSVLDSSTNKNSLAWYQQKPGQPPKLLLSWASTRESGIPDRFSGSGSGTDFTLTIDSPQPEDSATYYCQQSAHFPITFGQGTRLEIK was 111

The reported Mean % WT Binding of the binder Refmab #3 (antibody, V domains shown, The alanine scan used IgG or Fab) VH: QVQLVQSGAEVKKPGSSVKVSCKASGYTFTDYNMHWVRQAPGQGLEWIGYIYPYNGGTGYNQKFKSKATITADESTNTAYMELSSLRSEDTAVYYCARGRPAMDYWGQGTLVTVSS VL: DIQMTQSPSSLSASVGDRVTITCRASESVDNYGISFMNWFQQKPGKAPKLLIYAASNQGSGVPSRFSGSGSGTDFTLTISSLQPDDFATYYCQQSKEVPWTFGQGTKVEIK was 83.2

The reported Mean % WT Binding of the binder Refmab #2 (antibody, V domains shown, The alanine scan used IgG or Fab) VH: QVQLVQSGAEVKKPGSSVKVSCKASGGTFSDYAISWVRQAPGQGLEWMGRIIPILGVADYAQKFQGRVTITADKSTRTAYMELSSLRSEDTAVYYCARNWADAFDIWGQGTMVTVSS VL: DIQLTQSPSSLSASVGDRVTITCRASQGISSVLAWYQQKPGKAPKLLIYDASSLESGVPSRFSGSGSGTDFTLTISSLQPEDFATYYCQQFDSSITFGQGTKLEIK was 119

Continue with the binder presented below.
The reported Mean % WT Binding of the binder Refmab #1 (antibody, V domains shown, The alanine scan used IgG or Fab; also called hP67.6) VH: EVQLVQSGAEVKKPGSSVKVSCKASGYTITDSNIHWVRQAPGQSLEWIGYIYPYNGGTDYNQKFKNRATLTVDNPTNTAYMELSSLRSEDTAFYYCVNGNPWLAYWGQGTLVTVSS VL: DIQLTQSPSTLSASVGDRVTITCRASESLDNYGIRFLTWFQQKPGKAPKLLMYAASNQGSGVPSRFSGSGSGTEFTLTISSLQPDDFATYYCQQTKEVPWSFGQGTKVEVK was 92.8

src = patent US20260242735A1
